# study target: Hepatocyte growth factor receptor (Homo sapiens, UniProt P08581)
# Sequence (P08581 whole entry): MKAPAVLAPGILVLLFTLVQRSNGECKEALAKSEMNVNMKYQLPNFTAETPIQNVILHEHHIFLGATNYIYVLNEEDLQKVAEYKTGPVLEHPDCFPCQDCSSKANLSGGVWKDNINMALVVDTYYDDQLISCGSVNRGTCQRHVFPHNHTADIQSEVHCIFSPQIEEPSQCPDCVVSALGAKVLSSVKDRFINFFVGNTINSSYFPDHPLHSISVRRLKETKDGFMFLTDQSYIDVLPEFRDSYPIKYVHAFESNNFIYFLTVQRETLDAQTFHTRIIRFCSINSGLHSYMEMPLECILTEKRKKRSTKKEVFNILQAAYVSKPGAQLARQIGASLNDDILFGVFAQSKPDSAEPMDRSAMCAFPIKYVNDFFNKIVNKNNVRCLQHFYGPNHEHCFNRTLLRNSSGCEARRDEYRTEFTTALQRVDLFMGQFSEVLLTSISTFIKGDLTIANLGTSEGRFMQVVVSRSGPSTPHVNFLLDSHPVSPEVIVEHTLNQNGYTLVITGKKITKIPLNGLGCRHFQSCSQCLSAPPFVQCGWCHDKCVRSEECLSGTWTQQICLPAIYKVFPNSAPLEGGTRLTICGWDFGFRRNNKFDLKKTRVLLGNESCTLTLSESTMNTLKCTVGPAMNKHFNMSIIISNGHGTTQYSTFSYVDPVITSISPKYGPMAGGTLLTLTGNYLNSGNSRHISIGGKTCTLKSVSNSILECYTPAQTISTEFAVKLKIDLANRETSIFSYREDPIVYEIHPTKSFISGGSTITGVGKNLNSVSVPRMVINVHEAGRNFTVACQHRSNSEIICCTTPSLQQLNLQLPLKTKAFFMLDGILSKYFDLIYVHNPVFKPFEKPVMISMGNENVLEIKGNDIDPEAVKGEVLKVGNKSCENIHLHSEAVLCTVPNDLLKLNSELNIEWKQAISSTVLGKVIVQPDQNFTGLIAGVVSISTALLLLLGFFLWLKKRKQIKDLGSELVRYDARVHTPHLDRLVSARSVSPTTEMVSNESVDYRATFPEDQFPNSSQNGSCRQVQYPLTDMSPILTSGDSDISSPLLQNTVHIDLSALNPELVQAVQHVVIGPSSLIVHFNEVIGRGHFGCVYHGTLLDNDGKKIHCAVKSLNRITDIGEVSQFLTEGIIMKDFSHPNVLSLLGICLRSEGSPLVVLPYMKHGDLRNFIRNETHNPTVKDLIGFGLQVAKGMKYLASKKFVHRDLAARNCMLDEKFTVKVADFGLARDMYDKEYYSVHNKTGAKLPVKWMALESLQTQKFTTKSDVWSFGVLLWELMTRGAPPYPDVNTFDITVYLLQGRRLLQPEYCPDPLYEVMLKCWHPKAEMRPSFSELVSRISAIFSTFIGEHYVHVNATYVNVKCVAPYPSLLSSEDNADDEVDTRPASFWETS
reported endpoint: IC50

Prompt: I'm curious: which IC50 was measured for CC(C)(C)OC(=O)NCC(=O)Nc1ccc2ncnc(Nc3cccc(Br)c3)c2c1 tested on Hepatocyte growth factor receptor (Homo sapiens, UniProt P08581)?
Response: > 100 µM

The values you see were collected from ChEMBL document CHEMBL4011588.
